Experiment: Cytotoxicity against human HPDE cells assessed as reduction in cell viability by MTT assay
Assay type: cell-based

| molecule | Activity |
| --- | --- |
| CC(C)[C@H](N)C(=O)O[C@@H]1[C@@]2(C(C)C)O[C@H]2[C@@H]2O[C@]23[C@]12O[C@H]2C[C@H]1C2=C(CC[C@@]13C)C(=O)OC2 | Non-Toxic |
| CC(C)[C@]12O[C@H]1[C@@H]1O[C@]13[C@]1(O[C@H]1C[C@H]1C4=C(CC[C@@]13C)C(=O)OC4)[C@@H]2O [TRIPTOLIDE] | Toxic |
| CC(C)[C@]12O[C@H]1[C@@H]1O[C@]13[C@]1(O[C@H]1C[C@H]1C4=C(CC[C@@]13C)C(=O)OC4)[C@@H]2OC(=O)[C@@H](N)CCCCN | Non-Toxic |
| CC(C)[C@]12O[C@H]1[C@@H]1O[C@]13[C@]1(O[C@H]1C[C@H]1C4=C(CC[C@@]13C)C(=O)OC4)[C@@H]2OC(=O)[C@@H](N)Cc1c[nH]c2ccccc12 | Non-Toxic |

* * *

Reported half-life is given for each of the following compounds.
Assay: Stability in rat liver homogenate assessed as half life
Format: ADME, tissue-based

[ask] Which half-life value is on record for CC(C)[C@]12O[C@H]1[C@@H]1O[C@]13[C@]1(O[C@H]1C[C@H]1C4=C(CC[C@@]13C)C(=O)OC4)[C@@H]2OC(=O)[C@@H](N)Cc1c[nH]c2ccccc12 ?
[reply] 6 h

[ask] Further, for CC(C)[C@H](N)C(=O)O[C@@H]1[C@@]2(C(C)C)O[C@H]2[C@@H]2O[C@]23[C@]12O[C@H]2C[C@H]1C2=C(CC[C@@]13C)C(=O)OC2 ?
[reply] 6 h

[ask] Further, for CC(C)[C@]12O[C@H]1[C@@H]1O[C@]13[C@]1(O[C@H]1C[C@H]1C4=C(CC[C@@]13C)C(=O)OC4)[C@@H]2OC(=O)[C@@H](N)CCCCN ?
[reply] 6 h

* * *

Test: Drug uptake in human MIA PaCa-2 cells assessed as Km
Assay type: ADME, cell-based
Reported Km is given for each of the following compounds.

| structure.string | Km |
| --- | --- |
| CC(C)[C@]12O[C@H]1[C@@H]1O[C@]13[C@]1(O[C@H]1C[C@H]1C4=C(CC[C@@]13C)C(=O)OC4)[C@@H]2OC(=O)[C@@H](N)Cc1c[nH]c2ccccc12 | 96 µM |
| CC(C)[C@]12O[C@H]1[C@@H]1O[C@]13[C@]1(O[C@H]1C[C@H]1C4=C(CC[C@@]13C)C(=O)OC4)[C@@H]2OC(=O)[C@@H](N)CCCCN | 124 µM |

Turning to the following compound.
[ask] Which Km value is on record for CC(C)[C@H](N)C(=O)O[C@@H]1[C@@]2(C(C)C)O[C@H]2[C@@H]2O[C@]23[C@]12O[C@H]2C[C@H]1C2=C(CC[C@@]13C)C(=O)OC2 ?
[reply] 112 µM

* * *

Reported half-life is given for each of the following compounds.
Assay: Stability in rat plasma assessed as half life
Format: ADME, cell-free

| structure.string | half-life |
| --- | --- |
| CC(C)[C@]12O[C@H]1[C@@H]1O[C@]13[C@]1(O[C@H]1C[C@H]1C4=C(CC[C@@]13C)C(=O)OC4)[C@@H]2OC(=O)[C@@H](N)CCCCN | > 10 h |

[ask] Which half-life value is on record for CC(C)[C@H](N)C(=O)O[C@@H]1[C@@]2(C(C)C)O[C@H]2[C@@H]2O[C@]23[C@]12O[C@H]2C[C@H]1C2=C(CC[C@@]13C)C(=O)OC2 ?
[reply] > 10 h

[ask] Further, for CC(C)[C@]12O[C@H]1[C@@H]1O[C@]13[C@]1(O[C@H]1C[C@H]1C4=C(CC[C@@]13C)C(=O)OC4)[C@@H]2OC(=O)[C@@H](N)Cc1c[nH]c2ccccc12 ?
[reply] > 10 h
